Where do the numbers come from? From patent US20130143884A1.

- assay.method.text: pKa
- Type: physicochemical
- experimental.context: read-out: pKa
Counter-ions that a name gives are not always drawn.
value.kind: pKa

                                   compound  value_kind  quantitative_readout
0  Cc1cc(OCCN2CCOCC2)nn1-c1ccc2ccccc2c1 [Example 1, hydrochloride]         pKa                  6.73

---

- assay.method.text: Thermodynamic solubility at pH 7.4
- Format: physicochemical
- experimental.context: aqueous buffer, thermodynamic from solid; pH=7.4, phosphate buffer 50 mM, 25° C., 24 hours
Where a name gives a salt, the structure may show the parent alone.
value.kind: solubility thermodynamic at 24 h (µg/mL)

>>> df
                                   compound                        value_kind  value_unit  quantitative_readout
0  Cc1cc(OCCN2CCOCC2)nn1-c1ccc2ccccc2c1 [Example 1, hydrochloride]  solubility thermodynamic at 24 h       µg/mL                   227

---

- assay.method.text: Pharmacokinetics in rats after single oral administration (plasma, HPLC with fluorescence detection)
- Assay type: in vivo
- experimental.context: Wistar Hannover; rat plasma, single oral 25 mg/kg (expressed as compound 63)
Structures can show the parent of a compound that is named as a salt.
value.kind: AUC(0-inf) (ng·h/mL)

>>> df
                                   molecule  quantitative_readout
0  Cc1cc(OCCN2CCOCC2)nn1-c1ccc2ccccc2c1 [Example 1, hydrochloride]                  1250

---

- assay.method.text: Pharmacokinetics in rats after single oral administration (plasma, HPLC with fluorescence detection)
- Type: in vivo
- experimental.context: Wistar Hannover; rat plasma, single oral 25 mg/kg (expressed as compound 63)
Where a name gives a salt, the structure may show the parent alone.
value.kind: AUC(0-t)

In [3]: df
Out[3]:
                                   compound        result
0  Cc1cc(OCCN2CCOCC2)nn1-c1ccc2ccccc2c1 [Example 1, hydrochloride]  1220 ng·h/mL

---

- assay.method.text: Pharmacokinetics in rats after single oral administration (plasma, HPLC with fluorescence detection)
- Assay type: in vivo
- experimental.context: Wistar Hannover; rat plasma, single oral 25 mg/kg (expressed as compound 63)
Structures can show the parent of a compound that is named as a salt.
value.kind: Cmax (ng/mL)

                                   molecule  quantitative_readout
0  Cc1cc(OCCN2CCOCC2)nn1-c1ccc2ccccc2c1 [Example 1, hydrochloride]                  1150
